B1: Aryl-hydrocarbon-interacting protein-like 1, Q9NZN9 (parent)
chain: MDAALLLNVEGVKKTILHGGTGELPNFITGSRVIFHFRTMKCDEERTVIDDSRQVGQPMHIIIGNMFKLEVWEILLTSMRVHEVAEFWCDTIHTGVYPILSRSLRQMAQGKDPTEWHVHTCGLANMFAYHTLGYEDLDELQKEPQPLVFVIELLQVDAPSDYQRETWNLSNHEKMKAVPVLHGEGNRLFKLGRYEEASSKYQEAIICLRNLQTKEKPWEVQWLKLEKMINTLILNYCQCLLKKEEYYEVLEHTSDILRHHPGIVKAYYVRARAHAEVWNEAEAKADLQKVLELEPSMQKAVRRELRLLENRMAEKQEEERLRCRNMLSQGATQPPAEPPTEPPAQSSTEPPAEPPTAPSAELSAGPPAEPATEPPPSPGHSLQH

- Variants of: B1
- experimental conditions: Homo sapiens; pH 7.9; Thermal; CD; sodium Phosphate 5 mM; transition: 2; whole UniProt chain shown
readout: change of melting temperature, mutant - wild type (higher = more stable) (°C)
Report only the number, with the unit °C understood.

Recorded change of melting temperature, mutant - wild type (higher = more stable) (variant A197P ): -3.6

Recorded change of melting temperature, mutant - wild type (higher = more stable) (variant R302L ): -0.9

Recorded change of melting temperature, mutant - wild type (higher = more stable) (variant W278X ): -10.9
